src = the supplement of paper PMC9170038

# System: K4 kissing-loop RNA reporter;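 note: bound reporter read as fluorescence of individual clusters on recovered sequencing chips by microscopy, with normalized cluster intensities fitted with a binding model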
# EXPERIMENTAL PROTOCOL: apparent KD of K4 kissing-loop reporter; higher = weaker reporter binding
# PROTOCOL CONDITIONS: Eterna round: R107; input ligand: tryptophan 2.4 mM
Items are presented alongside their recorded apparent KD of K4 kissing-loop reporter.

RESIDUE SEQUENCE	SUBJECT OF TEST	apparent KD of K4 kissing-loop reporter
GGUGCUGUUUGUGCCGCCUUCCUCGUUCCUCGAGGACCGGUACGGCCGCCACUCGAGUGAUGUUUGGGUAGCGAUCCCUGCUAGC [Bdazzled - #14 Exc. Tryptophan A]	K4 kissing-loop RNA reporter	413 nM
ACGUGCACCAGUGAUGUUGGAAAAUAUGAAGGAGCGUGCGAAAGCACAGGUAGGUCGCAUAAUAGCACGAGCCACGAAAGUGGCA [#SwitchBubble 6 #K4Early #Sliding]	K4 kissing-loop RNA reporter	102 nM

Suppose we examine the sequence UGAUACCAGACGGCCGCCACUAGGACCGGGAGUGAUGUUCCCAAUUUAAAAUGCUCGGCCGCCACUAGGACCGGGUCUGGUAUCU [TrypBX 27 #DoubleAptamer #SwitchBubble] ; what apparent KD of K4 kissing-loop reporter value has been reported?
109 nM
